System: Inhibin beta A chain (activin A)
Assay: INHBA (activin A) binders on microarrays, primary screen, biochemical, small-molecule microarray, 635 nm fluorescence scan (AID 1107);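 further: mouse activin A protein probed at 4.33 µg/mL on printed slides; score merges bound-protein fluorescence near 667 nm with spot signal-to-noise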
Details: small-molecule microarray binding, higher = more signal
// rule not met strictly below 0.5 in composite z-score; rule met otherwise

In: Confirm if composite z-score reported for the compound CN1C(=O)C2C=CC(C(O)c3ccc(I)cc3)N(NC(=O)OC(C)(C)C)C2C1=O (stereo not drawn) is 0.5 or above.
Out: rule met

* * *

Test: inhibitors of hydroxyurea-induced Chk1 phosphorylation, primary screen, imaging, HeLa, phospho-Chk1 nuclear intensity (AID 1187); further: test concentration not given here
Settings: hydroxyurea-induced phospho-Chk1 immunofluorescence imaging, higher = more signal
Class (required): determined from z-score; valid ranges are bucket A (below -0.5), bucket B (-0.5 to below -0.05), bucket C (-0.05 or more)

Some solved cases for reference:
> print(dat)
                                   molecule     group
1  N#Cc1ccc(NN2C(C(O)c3cccc4ccccc34)C=CC3C(=O)N(c4ccccc4)C(=O)C32)cc1 (stereo not given)  bucket C
2  COCCOC(=O)N1C(=O)[C@@]2(c3ccccc31)[C@H](C(N)=O)[C@H]1C(=O)O[C@H](c3ccccc3)[C@H](c3ccccc3)N1[C@@H]2c1ccccc1OCCO  bucket C
3  CO[C@H]1O[C@H](CO)[C@@H](OC(=O)Nc2ccc3c(c2)OCO3)[C@H](OC(=O)Nc2ccccc2-c2ccccc2)[C@@H]1OC(=O)Nc1ccccc1-c1ccccc1  bucket B

In: Which bin, given its z-score, does COc1ccc([Si](C)(C)[C@H]2[C@H](CCO)O[C@@]3(C(=O)N(Cc4cccc(NC(=O)[C@H](C)O)c4)c4ccccc43)[C@@H]2C)cc1 occupy?
Out: bucket A

In: Which category does the recorded z-score put CC1CC/C=C\[C@H]2OC34C=CCN(Cn5nnc6ccccc65)C(=O)[C@H]3N(CCO)C(=O)[C@@H]4C2C(=O)O1 (stereo not given in full) in?
Out: bucket B

In: Sort into band: C=C(/C(=C/C[C@H](OC(=O)c1ccncc1)c1ccc(OCCO)cc1)c1cnc2ccccc2c1)C(C)C
Out: bucket C

In: Any idea which band CCCC[C@@H]1C[C@H]1[C@@H](NS(=O)(=O)c1cccc2cccnc12)c1ccc(-c2ccccc2)cc1 is in?
Out: bucket C

In: Form field 'band' for CN1C(=O)[C@@]2(CCC(=O)OC(C)(C)C)N=C(c3ccc(OCCCO)cc3)O[C@H]2c2ccccc21
Out: bucket B
